Would you mind telling me the reported AUC of viability dose-response curve of each entry?
System: NOMO1
Method Description: AUC of viability dose-response curve (% viability x log10 dose units); higher = less sensitive
Test Conditions: RPMI 5 mM glucose + 10% FBS; 48 h
API doc: respond with a numeric literal and nothing else, no unit.

Fill in: AUC of viability dose-response curve of C=CC[N+]1([C@H]2C[C@H]3[C@@H]4CC[C@H]5C[C@H](O)[C@@H](N6CCOCC6)C[C@]5(C)[C@H]4CC[C@]3(C)[C@H]2OC(C)=O)CCCC1 is ___
454

Fill in: AUC of viability dose-response curve of O=C(O)CCc1ccc(NCc2cccc(Oc3ccccc3)c2)cc1 is ___
441

Fill in: AUC of viability dose-response curve of CC(=O)OCC(CCn1cnc2cnc(N)nc21)COC(C)=O is ___
464

* * *

System: P12-Ichikawa
Method Description: cell viability relative to DMSO control; higher = less cytotoxic
Test Conditions: RPMI 5 mM glucose + 10% dialyzed FBS; 48 h; 0.0211 µM
Recorded Endpoint: cell viability
Reply with the number and its unit after it.

// fetch P12-Ichikawa cell viability for C=C1C(=O)O[C@@H]2[C@H]3O[C@]3(C)CC/C=C(\C)CC[C@@H]12
125%

// fetch P12-Ichikawa cell viability for Cc1cccc(Nc2nc(N[C@@H]3CCCC[C@@H]3N)ncc2C(N)=O)c1
123%

// fetch P12-Ichikawa cell viability for O=C1CCc2cc(OCCCCc3nnnn3C3CCCCC3)ccc2N1
94.6%

// fetch P12-Ichikawa cell viability for COc1ccc(CC2SC(=O)NC2=O)cc1C(=O)NCc1ccc(C(F)(F)F)cc1 (centres undefined)
71.5%

// fetch P12-Ichikawa cell viability for Cc1ccnc(N[S+](=O)([O-])c2ccc(NC(=O)Nc3ccc([S+](=O)([O-])Nc4nccc(C)n4)cc3)cc2)n1
101%

// fetch P12-Ichikawa cell viability for Cc1n[nH]c2ccc(-c3cncc(OC[C@@H](N)Cc4c[nH]c5ccccc45)c3)cc12
108%

// fetch P12-Ichikawa cell viability for CC/C(=C(\c1ccccc1)c1ccc(OCCN(C)C)cc1)c1ccccc1
114%

// fetch P12-Ichikawa cell viability for Oc1ccc(C2CNCCc3c2cc(O)c(O)c3Cl)cc1 (centres undefined)
86.9%

// fetch P12-Ichikawa cell viability for O=C(O)CCc1ccc(NCc2cccc(Oc3ccccc3)c2)cc1
110%

* * *

Tested on: P12-Ichikawa
Method Description: cell viability relative to DMSO control; higher = less cytotoxic
Test Conditions: RPMI 5 mM glucose + 10% dialyzed FBS; 48 h; 1.71 µM
Recorded Endpoint: cell viability (%)
Kindly answer with a numeric value in %, unit omitted.

// fetch P12-Ichikawa cell viability for CNC(=O)c1cc(Oc2ccc(NC(=O)Nc3ccc(Cl)c(C(F)(F)F)c3)c(F)c2)ccn1
90.3

// fetch P12-Ichikawa cell viability for CCc1nc(C(N)=O)c(Nc2ccc(N3CCC(N4CCN(C)CC4)CC3)c(OC)c2)nc1NC1CCOCC1
110

// fetch P12-Ichikawa cell viability for N[C@@H](Cc1cc(I)c(Oc2cc(I)c(O)c(I)c2)c(I)c1)C(=O)O
111

// fetch P12-Ichikawa cell viability for O=C(Nc1cccc2c(=O)cc(-c3nnn[nH]3)oc12)c1ccc(OCCCCc2ccccc2)cc1
81.6

// fetch P12-Ichikawa cell viability for Cc1nc(N)sc1-c1ccnc(Nc2ccc(N3CCOCC3)cc2)n1
110

// fetch P12-Ichikawa cell viability for COC1=CC2=C(C=C1CC3=C(F)C(=CC=C3)Cl)C(=O)\C(=C/N2[C@H](CO)C(C)C)C(O)=O
112

// fetch P12-Ichikawa cell viability for NC(=O)Cc1cccc(C(=O)c2ccccc2)c1N
99.3

// fetch P12-Ichikawa cell viability for COc1cc2nc(N3CCN(C(=O)c4ccco4)CC3)nc(N)c2cc1OC
89.1

// fetch P12-Ichikawa cell viability for OC[C@H]1O[C@H](C[C@@H]1O)N2\C=C(\I)C(=O)NC2=O
115

// fetch P12-Ichikawa cell viability for CC(C)C[C@@H](C(=O)N[C@H](C(=O)OC1CCCC1)c1ccccc1)[C@H](O)C(=O)NO
102

// fetch P12-Ichikawa cell viability for CC(=O)[C@H]1CC[C@H]2[C@@H]3C/C=C4/C[C@@H](O)CC[C@]4(C)[C@H]3CC[C@]12C
125

// fetch P12-Ichikawa cell viability for Cc1cccc(Nc2nc(N[C@@H]3CCCC[C@@H]3N)ncc2C(N)=O)c1
80.5

// fetch P12-Ichikawa cell viability for COC1=CC=CC(=C1/C2=N/CC3=C(N=C(NC4=CC(=C(C=C4)C(O)=O)OC)N=C3)C5=CC=C(Cl)C=C25)F
23

// fetch P12-Ichikawa cell viability for CC[P](CC)(CC)=[Au][S][C@@H]1O[C@H](COC(C)=O)[C@@H](OC(C)=O)[C@H](OC(C)=O)[C@H]1OC(C)=O
3.62

// fetch P12-Ichikawa cell viability for COC(=O)Nc1nc2cc(Sc3ccccc3)ccc2[nH]1
90

// fetch P12-Ichikawa cell viability for CN1CCN(c2cc(C(=O)Nc3ccc4c(c3)-c3c(c(C(N)=O)nn3-c3ccc(F)cc3)CC4)c(Cl)cn2)CC1
100

// fetch P12-Ichikawa cell viability for CN1CCN(CC1)C/2=N/C3=CC=CC=C3NC4=C2C=C(C)S4
91.4

// fetch P12-Ichikawa cell viability for CN1CCC(=C2c3ccccc3CCc3sccc32)CC1
114

// fetch P12-Ichikawa cell viability for CN1\C(=C(O)/C2=C(C=C(Cl)S2)[S+]1([O-])=O)C(=O)NC3=NC=CC=C3
117

// fetch P12-Ichikawa cell viability for Cc1cc(-c2ccc(CC(=O)Nc3ccc(-c4cccnc4)cc3)cc2)ccn1
106

// fetch P12-Ichikawa cell viability for CCNC(=O)c1noc(-c2cc(C(C)C)c(O)cc2O)c1-c1ccc(CN2CCOCC2)cc1
41.1

// fetch P12-Ichikawa cell viability for O=C(/C=C/c1cccnc1)NCCCCC1CCN(C(=O)c2ccccc2)CC1
4.67

// fetch P12-Ichikawa cell viability for Cc1nc(C(=O)NCC(=O)O)c(O)c2ccc(Oc3ccccc3)cc12
94.8

// fetch P12-Ichikawa cell viability for O=C1N\N=C(\C[C@@H]2CCN(C2)C(=O)C3CC3)N1C4=CC=C(C=C4)C5=CC=C6OC=CC6=C5
80.6

// fetch P12-Ichikawa cell viability for O=C1C(CCC(O)c2ccc(F)cc2)C(c2ccc(O)cc2)N1c1ccc(F)cc1 (stereo unspecified)
116

// fetch P12-Ichikawa cell viability for N[S+](=O)([O-])c1cc2c(cc1Cl)NCN[S+]2(=O)[O-]
116

* * *

Would you mind telling me the reported cell viability of each entry?
Test system: NOMO1
Method Description: cell viability relative to DMSO control; higher = less cytotoxic
Test Conditions: RPMI 5 mM glucose + 10% FBS; 48 h; 1.71 µM
Kindly answer with a numeric value in %, unit omitted.

// fetch NOMO1 cell viability for C[C@]12CCC(=O)C(O)=C1CC[C@@H]1[C@@H]2CC[C@]2(C)C(=O)CC[C@@H]12
104

// fetch NOMO1 cell viability for CC(C)C[C@@H](C(=O)N[C@H](C(=O)OC1CCCC1)c1ccccc1)[C@H](O)C(=O)NO
99.3

// fetch NOMO1 cell viability for O=C(O)CCc1ccc(NCc2cccc(Oc3ccccc3)c2)cc1
102

// fetch NOMO1 cell viability for O=C(/C=C/c1cccnc1)NCCCCC1CCN(C(=O)c2ccccc2)CC1
8.21

// fetch NOMO1 cell viability for NC(=O)c1c(OCc2c(F)cc(Br)cc2F)nsc1NC(=O)NCCCCN1CCCC1
103

// fetch NOMO1 cell viability for CC[C@@H](C)[C@H](NC(=O)[C@H](CC1CCCCC1)NC(=O)c1ccno1)C(=O)N1CCC2(CCc3ccccc32)CC1
81.9

// fetch NOMO1 cell viability for NC(=O)Cc1cccc(C(=O)c2ccccc2)c1N
98.8

// fetch NOMO1 cell viability for CO[C@H]1C[C@H]2OC[C@@]2(OC(C)=O)[C@H]3[C@H](OC(=O)C4=CC=CC=C4)[C@]5(O)C[C@H](OC(=O)[C@H](O)[C@@H](NC(=O)OC(C)(C)C)C6=CC=CC=C6)/C(=C(/[C@@H](OC)C(=O)[C@]13C)C5(C)C)C
12.6

* * *

Would you mind telling me the reported cell viability of each entry?
Tested on: NOMO1
Method Description: cell viability relative to DMSO control; higher = less cytotoxic
Test Conditions: HPLM + 10% dialyzed FBS; 48 h; 46.1 µM
Kindly answer with a numeric value in %, unit omitted.

Fill in: cell viability of CON(C)C(=O)N1\N=C(/S[C@]1(CCCN)C2=CC=CC=C2)C3=CC(=CC=C3F)F is ___
24.1

Fill in: cell viability of COC1=C(CC=C(C)C)C2=C(\C=C/C(=O)O2)C=C1 is ___
81.8

Fill in: cell viability of CC(=O)OCC(CCn1cnc2cnc(N)nc21)COC(C)=O is ___
101

Fill in: cell viability of COCCNCCCn1c(C(=O)CF)c(-c2ccc(C)cc2)c2c(N)ncnc21 is ___
93.9

Fill in: cell viability of CN(C)Cc1cccc(N/C(=C2\C(=O)Nc3cc(C(=O)N(C)C)ccc32)c2ccccc2)c1 is ___
28.8

Fill in: cell viability of Clc1ccc(C(Cn2ccnc2)OCc2ccc(Sc3ccccc3)cc2)c(Cl)c1 (configuration not stated) is ___
104

Fill in: cell viability of CCNC(=O)c1noc(-c2cc(C(C)C)c(O)cc2O)c1-c1ccc(CN2CCOCC2)cc1 is ___
21.2

Fill in: cell viability of CO[C@H]1C[C@H]2OC[C@@]2(OC(C)=O)[C@H]3[C@H](OC(=O)C4=CC=CC=C4)[C@]5(O)C[C@H](OC(=O)[C@H](O)[C@@H](NC(=O)OC(C)(C)C)C6=CC=CC=C6)/C(=C(/[C@@H](OC)C(=O)[C@]13C)C5(C)C)C is ___
7.15

Fill in: cell viability of Cc1ccc(Nc2nccc(N(C)c3ccc4c(C)n(C)nc4c3)n2)cc1[S+](N)(=O)[O-] is ___
50.9

Fill in: cell viability of NC(=O)c1ncn([C@@H]2O[C@H](CO)[C@@H](O)[C@H]2O)c1N is ___
83

Fill in: cell viability of CCN(CCO)CCCC(C)Nc1ccnc2cc(Cl)ccc12 (configuration not stated) is ___
26

Fill in: cell viability of O=C(/C=C/c1cccnc1)NCCCCC1CCN(C(=O)c2ccccc2)CC1 is ___
6.73

Fill in: cell viability of CC[P](CC)(CC)=[Au][S][C@@H]1O[C@H](COC(C)=O)[C@@H](OC(C)=O)[C@H](OC(C)=O)[C@H]1OC(C)=O is ___
2.08

Fill in: cell viability of Cc1ccc(C)c(OCCCC(C)(C)C(=O)O)c1 is ___
98.3

Fill in: cell viability of O=C(c1ccc(C(=O)N2CCC(N3CCCC3)CC2)c(Nc2ccccc2)c1)N1CCC(N2CCCC2)CC1 is ___
112

Fill in: cell viability of CC(C)N(CCCNC(=O)Nc1ccc(C(C)(C)C)cc1)C[C@H]1O[C@@H](n2cc(Br)c3c(N)ncnc32)[C@H](O)[C@@H]1O is ___
9.86

Fill in: cell viability of OCCN1CCN(CCCN2c3ccccc3Sc3ccc(C(F)(F)F)cc32)CC1 is ___
27.7
